Cited source for all entries: patent US8410112B2

# Target Under Test: full-length ATR (Homo sapiens, UniProt Q13535)
# Construct: in the presence of 5 nM full-length ATR
# Sequence (Q13535 whole entry): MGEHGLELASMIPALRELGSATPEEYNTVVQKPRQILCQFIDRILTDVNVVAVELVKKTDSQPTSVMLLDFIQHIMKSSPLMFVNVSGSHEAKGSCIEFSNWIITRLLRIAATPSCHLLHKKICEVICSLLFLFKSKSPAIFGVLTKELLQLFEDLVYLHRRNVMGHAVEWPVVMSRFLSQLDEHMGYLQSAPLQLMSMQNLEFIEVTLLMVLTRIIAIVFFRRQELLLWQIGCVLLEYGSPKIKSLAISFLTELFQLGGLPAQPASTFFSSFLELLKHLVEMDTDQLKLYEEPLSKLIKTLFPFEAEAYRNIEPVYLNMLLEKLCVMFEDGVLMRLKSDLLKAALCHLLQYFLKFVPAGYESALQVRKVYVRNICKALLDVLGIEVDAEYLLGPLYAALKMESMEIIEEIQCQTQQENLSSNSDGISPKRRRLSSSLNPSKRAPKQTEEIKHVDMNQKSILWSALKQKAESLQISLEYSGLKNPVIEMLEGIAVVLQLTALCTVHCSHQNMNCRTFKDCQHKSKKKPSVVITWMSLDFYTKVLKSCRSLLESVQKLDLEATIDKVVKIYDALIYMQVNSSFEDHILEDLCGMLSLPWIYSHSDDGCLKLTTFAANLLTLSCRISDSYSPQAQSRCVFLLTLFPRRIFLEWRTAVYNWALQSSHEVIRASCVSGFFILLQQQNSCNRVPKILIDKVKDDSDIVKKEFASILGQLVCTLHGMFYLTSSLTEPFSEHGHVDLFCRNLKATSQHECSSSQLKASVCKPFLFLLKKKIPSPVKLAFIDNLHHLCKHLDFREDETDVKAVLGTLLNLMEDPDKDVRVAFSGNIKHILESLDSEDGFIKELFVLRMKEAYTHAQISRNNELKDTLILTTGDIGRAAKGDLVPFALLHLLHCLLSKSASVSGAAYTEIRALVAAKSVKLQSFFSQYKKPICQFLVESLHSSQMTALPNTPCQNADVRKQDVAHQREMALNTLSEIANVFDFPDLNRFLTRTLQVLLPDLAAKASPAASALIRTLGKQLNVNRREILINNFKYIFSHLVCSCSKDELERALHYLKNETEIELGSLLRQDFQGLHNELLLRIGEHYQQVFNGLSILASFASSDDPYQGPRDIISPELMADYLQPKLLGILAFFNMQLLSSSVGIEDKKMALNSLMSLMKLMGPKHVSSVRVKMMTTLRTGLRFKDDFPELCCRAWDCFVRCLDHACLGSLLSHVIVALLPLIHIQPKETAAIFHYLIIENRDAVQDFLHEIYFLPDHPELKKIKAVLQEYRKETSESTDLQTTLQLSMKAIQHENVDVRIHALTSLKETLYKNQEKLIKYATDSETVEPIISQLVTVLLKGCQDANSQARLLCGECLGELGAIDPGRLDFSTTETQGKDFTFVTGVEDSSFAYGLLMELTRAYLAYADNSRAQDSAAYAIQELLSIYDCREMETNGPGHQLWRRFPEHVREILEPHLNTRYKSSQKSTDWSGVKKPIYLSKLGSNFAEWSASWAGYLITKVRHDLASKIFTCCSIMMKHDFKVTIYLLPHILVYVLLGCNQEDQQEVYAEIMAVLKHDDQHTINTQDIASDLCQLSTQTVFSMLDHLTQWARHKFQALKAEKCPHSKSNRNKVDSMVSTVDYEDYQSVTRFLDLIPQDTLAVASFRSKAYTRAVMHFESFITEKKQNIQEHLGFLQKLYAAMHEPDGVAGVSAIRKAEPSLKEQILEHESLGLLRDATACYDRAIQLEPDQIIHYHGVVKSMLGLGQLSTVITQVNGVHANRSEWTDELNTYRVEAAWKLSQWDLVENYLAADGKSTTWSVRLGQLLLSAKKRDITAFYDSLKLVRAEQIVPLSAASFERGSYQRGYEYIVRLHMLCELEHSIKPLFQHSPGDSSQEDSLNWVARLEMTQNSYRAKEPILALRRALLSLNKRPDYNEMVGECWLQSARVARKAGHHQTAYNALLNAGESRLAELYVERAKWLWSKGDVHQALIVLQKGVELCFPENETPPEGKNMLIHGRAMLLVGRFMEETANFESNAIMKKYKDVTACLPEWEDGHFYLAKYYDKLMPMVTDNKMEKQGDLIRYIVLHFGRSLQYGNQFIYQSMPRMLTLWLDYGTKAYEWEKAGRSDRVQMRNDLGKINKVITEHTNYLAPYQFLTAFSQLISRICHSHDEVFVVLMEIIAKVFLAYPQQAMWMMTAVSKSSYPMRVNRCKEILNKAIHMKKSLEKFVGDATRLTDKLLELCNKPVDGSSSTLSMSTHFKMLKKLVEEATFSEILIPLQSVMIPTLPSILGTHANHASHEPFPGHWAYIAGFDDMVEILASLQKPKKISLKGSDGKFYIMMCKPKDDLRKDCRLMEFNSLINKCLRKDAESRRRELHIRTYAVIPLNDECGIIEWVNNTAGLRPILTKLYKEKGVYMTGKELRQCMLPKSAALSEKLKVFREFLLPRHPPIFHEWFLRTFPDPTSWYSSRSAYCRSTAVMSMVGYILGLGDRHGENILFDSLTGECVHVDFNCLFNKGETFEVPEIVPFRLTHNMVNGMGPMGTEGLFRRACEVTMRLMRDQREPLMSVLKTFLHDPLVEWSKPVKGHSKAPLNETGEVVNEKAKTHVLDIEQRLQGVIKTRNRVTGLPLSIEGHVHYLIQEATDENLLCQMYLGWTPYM
# Protocol Summary: ATR Inhibition Assay (radioactive-phosphate incorporation)
# Settings: Ki(app); 5 nM full-length ATR, 10 μM ATP, 800 μM target peptide, 25° C.
Property: Ki; scope: individual molecules

Some solved cases for reference:
molecule=Cc1ccc2nc(-c3nc(N4CCC(C(N)=O)CC4)cnc3N)[nH]c2c1 target_under_test="full-length ATR (Homo sapiens, UniProt Q13535)" val="1000 to 10000 nM"
molecule="CCS(=O)(=O)NC1CC[C@H]2CN(c3cnc(N)c(-c4nnc(-c5ccc(CNC)cc5)o4)n3)C[C@@H]12 (some centres unmarked)" target_under_test="full-length ATR (Homo sapiens, UniProt Q13535)" val="100 to 1000 nM"
molecule="CCNC1CC=C(c2cnc(N)c(-c3nnc(-c4ccccc4)o3)n2)CC1 (centres unmarked)" target_under_test="full-length ATR (Homo sapiens, UniProt Q13535)" val="100 to 1000 nM"
molecule=Cc1cccc(C)c1C(=O)N1CCN(c2cnc(N)c(-c3nc4ccccc4[nH]3)n2)CC1 target_under_test="full-length ATR (Homo sapiens, UniProt Q13535)" val="1000 to 10000 nM"
molecule=CCS(=O)(=O)N1CC=C(c2cnc(N)c(-c3nc4ccc(F)c(F)c4[nH]3)n2)CC1 target_under_test="full-length ATR (Homo sapiens, UniProt Q13535)" val="< 100 nM"
molecule=Nc1ncc(N2CCN(S(=O)(=O)c3ccoc3)CC2)nc1-c1nc2ccccc2[nH]1 target_under_test="full-length ATR (Homo sapiens, UniProt Q13535)" val="100 to 1000 nM"
molecule=Cc1ccc2nc(-c3nc(N4CCN(c5ccccc5F)CC4)cnc3N)[nH]c2c1 target_under_test="full-length ATR (Homo sapiens, UniProt Q13535)" val="1000 to 10000 nM"

Please turn your attention to the following entry.
q: Could you tell me which Ki is on file for "Nc1ncc(N2CC[C@H](NC(=O)c3ccccn3)C2)nc1-c1nc2ccccc2[nH]1" ?
a: 100 to 1000 nM

----------
# Target Under Test: full-length ATR (Homo sapiens)
# Construct: in the presence of 5 nM full-length ATR
# Protocol Summary: ATR Inhibition Assay (radioactive-phosphate incorporation)
# Settings: Ki(app); 5 nM full-length ATR, 10 μM ATP, 800 μM target peptide, 25° C.
pKi: −log10 of the molar value.
Below: a set of entries, each annotated with reported pKi.

These recorded examples may help you get a feel for the data.
molecule=Nc1ncc(C2=CCN(C(=O)c3ccccn3)CC2)nc1-c1nc2ccccc2[nH]1 val="> 7.00"
molecule=Nc1ncc(C2=CCN(C(=O)N3CCNCC3)CC2)nc1-c1nc2ccccc2[nH]1 val="6.00 to 7.00"
molecule=Nc1ncc(N2CCN(S(=O)(=O)c3ccsc3)CC2)nc1-c1nc2ccccc2[nH]1 val="6.00 to 7.00"
molecule=Nc1ncc(N2CCN(C(=O)c3c(F)cccc3F)CC2)nc1-c1nnc(-c2ccccc2)o1 val="6.00 to 7.00"
molecule=CCS(=O)(=O)N1CC=C(c2cnc(N)c(C(=O)Nc3nc4ccccc4[nH]3)n2)CC1 val="> 7.00"
molecule=Nc1ncc(C2=CCN(C(=O)c3c(F)cccc3F)CC2)nc1-c1nc2ccccc2[nH]1 val="> 7.00"
molecule=Nc1ncc(N2CCN(C(=O)C3CCC3)CC2)nc1-c1nnc(-c2ccccc2)o1 val="6.00 to 7.00"
molecule=CCS(=O)(=O)N1CC=C(c2cnc(N)c(C(=O)Nc3ccnc(C)c3)n2)CC1 val="6.00 to 7.00"
molecule=COCC(=O)N[C@H]1CCN(c2cnc(N)c(-c3nc4ccccc4[nH]3)n2)C1 val="5.00 to 6.00"
molecule=CCCS(=O)(=O)N1CC=C(c2cnc(N)c(-c3nc4ccccc4[nH]3)n2)CC1 val="> 7.00"

q: Which pKi value belongs to "CNCc1ccc(-c2nnc(-c3nc(N4CCC5(CCN(C)C5=O)CC4)cnc3N)o2)cc1" ?
a: > 7.00

q: Further, for "CCC(CC)C(=O)N1CCN(c2cnc(N)c(-c3nc4ccccc4[nH]3)n2)CC1" ?
a: 5.00 to 6.00

q: Now consider CCNC(=O)C1[C@H]2CN(c3cnc(N)c(-c4nnc(-c5ccc(CNC)cc5)o4)n3)C[C@@H]12 (stereo partly shown) .
a: 6.00 to 7.00

q: Follow-up entry: "Nc1ncc(N2CCN(C(=O)C3CCOCC3)CC2)nc1C(=O)Nc1ccccn1"
a: 5.00 to 6.00

q: // same read-out, input: "CC#CCOC(=O)N1CC=C(c2cnc(N)c(-c3nnc(-c4ccccc4)o3)n2)CC1"
a: > 7.00

q: Quick one: "COCC(=O)N1CCN(c2cnc(N)c(C(=O)Nc3ccccn3)n2)CC1"
a: 5.00 to 6.00

----------
Below is a list of entries, each paired with its recorded pKi value.
# Target Under Test: full-length ATR (Homo sapiens)
# Construct: in the presence of 5 nM full-length ATR
# Protocol Summary: ATR Inhibition Assay (radioactive-phosphate incorporation)
# Settings: Ki(app); 5 nM full-length ATR, 10 μM ATP, 800 μM target peptide, 25° C.
pKi: −log10 of the molar value.

structure_smiles=CN(C)S(=O)(=O)N1CCN(c2cnc(N)c(-c3nnc(-c4ccccc4)o3)n2)CC1 target_under_test="full-length ATR (Homo sapiens)" value_kind=pKi val="6.00 to 7.00"
structure_smiles=N#CCN1CC=C(c2cnc(N)c(-c3nc4ccccc4[nH]3)n2)CC1 target_under_test="full-length ATR (Homo sapiens)" value_kind=pKi val="6.00 to 7.00"
structure_smiles=CN(C)S(=O)(=O)N1CCN(c2cnc(N)c(C(=O)Nc3ccccn3)n2)CC1 target_under_test="full-length ATR (Homo sapiens)" value_kind=pKi val="5.00 to 6.00"

Continue with the next compound.
q: Look up pKi for this compound: "CCS(=O)(=O)N1CCN(c2cnc(N)c(-c3nnc(Nc4ccccc4)o3)n2)CC1"
a: 6.00 to 7.00

----------
# Target Under Test: full-length ATR (Homo sapiens)
# Construct: in the presence of 5 nM full-length ATR
# Protocol Summary: ATR Inhibition Assay (radioactive-phosphate incorporation)
# Settings: Ki(app); 5 nM full-length ATR, 10 μM ATP, 800 μM target peptide, 25° C.
Value Kind: Ki

structure_smiles=CCNC(=O)[C@@H]1CCCN1c1cnc(N)c(-c2nnc(-c3ccc(CNC)cc3)o2)n1 val="1000 to 10000 nM"
structure_smiles=CN(C)CC(=O)N[C@H]1CCN(c2cnc(N)c(-c3nc4ccccc4[nH]3)n2)C1 val="1000 to 10000 nM"

q: So what's the measured Ki for this one? "CCS(=O)(=O)N1CCN(c2cnc(N)c(-c3cc(-c4ccccc4)no3)n2)CC1"
a: 100 to 1000 nM

q: Could you do the same for "CCS(=O)(=O)N1CCN(c2cnc(N)c(-c3nnc(-c4ccccc4)o3)n2)CC1" , please?
a: < 100 nM

q: Ok, now "CC(C)C(=O)N1CCN(c2cnc(N)c(C(=O)Nc3ccccn3)n2)CC1"
a: 100 to 1000 nM

q: Input "Cc1ccc2nc(-c3nc(N4CCC(C(F)(F)F)CC4)cnc3N)[nH]c2c1"
a: 1000 to 10000 nM

q: Now this one: "Nc1ncc(N2CCN(CC(=O)N3CCOCC3)CC2)nc1-c1nnc(-c2ccccc2)o1"
a: 100 to 1000 nM

q: Another compound to look at: "Nc1ncc(N2CCN(C(=O)C3CCCC3)CC2)nc1-c1nnc(-c2ccccc2)o1"
a: 100 to 1000 nM

q: Moving on to "CC(=O)N1CCCN(c2cnc(N)c(-c3nc4ccc(C)cc4[nH]3)n2)CC1"
a: 1000 to 10000 nM

q: Would you mind doing "CNCc1ccc(-c2nnc(-c3nc(N4CC[C@H](CNC(C)=O)C4)cnc3N)o2)cc1" as well?
a: < 100 nM

q: Also, "CC(=O)N[C@H]1CCN(c2cnc(N)c(-c3nc4ccc(C)cc4[nH]3)n2)C1" please.
a: 100 to 1000 nM

q: Here is the next compound: "CS(=O)(=O)N1CCN(c2cnc(N)c(C(=O)Nc3ccccn3)n2)CC1"
a: 100 to 1000 nM

----------
Quick reference for Ki among some compounds
# Target Under Test: full-length ATR (Homo sapiens, UniProt Q13535)
# Construct: in the presence of 5 nM full-length ATR
# Protocol Summary: ATR Inhibition Assay (radioactive-phosphate incorporation)
# Settings: Ki(app); 5 nM full-length ATR, 10 μM ATP, 800 μM target peptide, 25° C.

Past entries and their recorded results:
structure_smiles=CNCc1ccc(-c2nnc(-c3nc(N4C[C@@H]5[C@H](C4)[C@@H]5NS(=O)(=O)C(C)C)cnc3N)o2)cc1 val="0.1 to 1 µM"
structure_smiles=CN1CCC(C(=O)N2CC=C(c3cnc(N)c(-c4nc5ccccc5[nH]4)n3)CC2)CC1 val="0.1 to 1 µM"
structure_smiles=CCOC(=O)N1CCN(c2cnc(N)c(-c3nc4ccccc4[nH]3)n2)CC1 val="1 to 10 µM"

q: Request - read-out Ki | tested on full-length ATR (Homo sapiens, UniProt Q13535) | compound "CC#CCOC(=O)N1CC=C(c2cnc(N)c(-c3nc4ccccc4[nH]3)n2)CC1"
a: 0.1 to 1 µM

q: Same again, this time with "Nc1ncc(N2CCN(C(=O)C3CCCC3)CC2)nc1C(=O)Nc1ccccn1"
a: 0.1 to 1 µM

q: Now the compound "CCS(=O)(=O)N1C2CCC1CN(c1cnc(N)c(-c3nnc(-c4ccc(CNC)cc4)o3)n1)C2"
a: 0.1 to 1 µM

q: Same question, "Nc1ncc(C2=CCN(S(=O)(=O)c3cccs3)CC2)nc1-c1nnc(-c2ccccc2)o1" this time
a: < 0.1 µM
